Values were extracted from PubChem BioAssay (NCATS).

- measurementProtocol: Quantitative highthroughput screen to assess conditional lethalithy of P12 Ichikawa cells grown in RPMI1640 with untreated serum (RPMI+s) (AID 1963881); note: nearly all actives have a fitted effect of over 35% in size
- details: ATP luminescence, 48 h; viability; series mostly up to 45.8 µM
Records with an inconclusive call do not appear. Activity calls are given as the source filed them. Calls come from the whole dose curve; as a rule, active = well fitted cell-killing curve with a large enough effect; inconclusive = small, poorly fitted or top-dose-only effect; inactive = flat fitted curve, though single readings scatter.
Outcomes: active, inactive

>  <smiles>
Nc1nnc(-c2cccc(Cl)c2Cl)c(N)n1

>  <classLabel>
inactive

$$$$
>  <smiles>
COc1cc(C(C)C)c(Oc2cnc(NC(CO)CO)nc2N)cc1I

>  <classLabel>
inactive

$$$$
>  <smiles>
CNC(=O)c1cc(COc2nnc(Nc3ccc(Cl)cc3)c3ccoc23)ccn1

>  <classLabel>
inactive

$$$$
>  <smiles>
CC(C)C[C@@H](N)[C@H](O)C(=O)N[C@H](C(=O)N[C@H](C(=O)N[C@@H](CC(=O)O)C(=O)O)C(C)C)C(C)C

>  <classLabel>
inactive

$$$$
>  <smiles>
O=C1NC(=O)C(=Cc2cccc(C(F)(F)F)c2)S1

>  <classLabel>
inactive

$$$$
>  <smiles>
C=C1c2cccc(O)c2C(O)=C2C(=O)[C@@]3(O)C(O)=C(C(N)=O)C(=O)[C@@H](N(C)C)[C@@H]3[C@@H](O)[C@H]12

>  <classLabel>
inactive

$$$$
>  <smiles>
COc1cccc2c1C(=O)c1c(O)c3c(c(O)c1C2=O)C[C@@](O)(C(C)=O)C[C@H]3O[C@H]1C[C@H](N)[C@H](O)[C@H](C)O1

>  <classLabel>
active

$$$$
>  <smiles>
CC(C)(C#N)c1cc(Cn2cncn2)cc(C(C)(C)C#N)c1

>  <classLabel>
inactive

$$$$
>  <smiles>
COc1cc2ncn(-c3cc(OCc4ccccc4S(C)(=O)=O)c(C#N)s3)c2cc1OC

>  <classLabel>
inactive

$$$$
>  <smiles>
CON=C(C(=O)N[C@@H]1C(=O)N2C(C(=O)OCOC(=O)C(C)(C)C)=C(C=Cc3scnc3C)CS[C@H]12)c1csc(N)n1

>  <classLabel>
active

$$$$
>  <smiles>
O=C1C[C@@H](c2ccc(O)cc2)Oc2cc(O)cc(O)c21

>  <classLabel>
inactive

$$$$
>  <smiles>
COC(=O)N1CCN(Cc2cccc(NC(=O)Nc3ccc(C)nc3)c2F)CC1

>  <classLabel>
inactive

$$$$
>  <smiles>
CO[C@H]1C(=O)[C@]2(C)[C@@H](OC)C[C@H]3OC[C@@]3(OC(C)=O)[C@H]2[C@H](OC(=O)c2ccccc2)[C@]2(O)C[C@H](OC(=O)[C@H](O)[C@@H](NC(=O)OC(C)(C)C)c3ccccc3)C(C)=C1C2(C)C

>  <classLabel>
active

$$$$
>  <smiles>
C=CCn1c(=O)c2cnc(Nc3ccc(N4CCN(C)CC4)cc3)nc2n1-c1cccc(C(C)(C)O)n1

>  <classLabel>
active

$$$$
>  <smiles>
CN(C)CCc1c[nH]c2ccc(Cn3cncn3)cc12

>  <classLabel>
active

$$$$
>  <smiles>
NCc1c[nH]c(=S)n1[C@H]1CCc2c(F)cc(F)cc2C1

>  <classLabel>
inactive

$$$$
>  <smiles>
CCc1ccc(OCc2ccccc2C(=O)Nc2ccc3nc(C)cc(N)c3c2)cc1

>  <classLabel>
active

$$$$
>  <smiles>
CN(C)c1ccccc1CN1CCCN(Cc2ccccc2N(C)C)C1c1ccncc1

>  <classLabel>
inactive

$$$$
